FYI, the data here is from patent US20110098283A1.

# SYSTEM_NAME: CSF-1R (His-tagged kinase domain, amino acids 568-912) (Homo sapiens)
# Construct: The His-tagged kinase domain of CSF-1R (i.e., amino acids 568-912, GeneBank ID NM_005211); His; made in house; host or cells: baculovirus infected SF+Express insect cells
# EXPERIMENT: Assay 2: CSF1R in-vitro AlphaScreen Assay
# Format: biochemical
# STATED_CONDITIONS: phosphorylation of pEY substrate; 0.46 nM CSF-1R, 12 mM ATP in mix
PARAMETER_MEASURED: IC50 (nM)

Sample records with IC50:
COMPOUND	UNIT_TAG	IC50
COc1cc2nnc(C(N)=O)c(Nc3ccc(C)cc3F)c2cc1N1CCN2C(=NNC2O)C1 (centres unmarked) [Example 32]	nM	8
COc1cc2nnc(C(N)=O)c(Nc3ccc(C)cc3F)c2cc1C1=CCN(CCO)CC1 [Example 34]	nM	5
COc1cc2nnc(C(N)=O)c(Nc3ccc(C)cc3F)c2cc1C1=CCN(C(C)C)CC1 [Example 29]	nM	7

1. COc1cc2nnc(C(N)=O)c(Nc3cccc(Cl)c3F)c2cc1N1C[C@@H](C)N[C@@H](C)C1 [Example 45]
2. COc1cc2nnc(C(N)=O)c(Nc3ccc(F)cc3F)c2cc1N1C[C@@H](C)N[C@@H](C)C1 [Example 44]
3. CCOc1cc2nnc(C(N)=O)c(Nc3ccc(C)cc3F)c2cc1N1CCN(CCO)CC1 [Example 43]
4. COc1cc2nnc(C(N)=O)c(Nc3ccc(C)cc3F)c2cc1N1C[C@@H](C)O[C@@H](C)C1 [Example 37]
Task: Hey, quick one: sort these by IC50, largest value first please. List the labels according to the requested ordering.
Output: 4, 2, 1, 3
(4: 71 nM, 2: 16 nM, 1: 6 nM, 3: 3 nM)

====

# SYSTEM_NAME: CSF-1R (His-tagged kinase domain, amino acids 568-912) (Homo sapiens, UniProt P07333)
# Construct: The His-tagged kinase domain of CSF-1R (i.e., amino acids 568-912, GeneBank ID NM_005211); His; made in house; host or cells: baculovirus infected SF+Express insect cells
# EXPERIMENT: Assay 1: CSF-1R in vitro AlphaScreen Assay
# Format: biochemical
# STATED_CONDITIONS: phosphorylation of pEY substrate; 0.57 nM CSF-1R, 90 μM ATP
pIC50: −log10 of the molar value.
PARAMETER_MEASURED: pIC50

Some molecules with known pIC50 results, for comparison:
LINE_NOTATION	pIC50
COc1cc2nnc(C(N)=O)c(Nc3ccc(F)cc3F)c2cc1OC	> 8.52
CCOc1cc2nnc(C(N)=O)c(Nc3ccc(F)cc3F)c2cc1N1CCN(CC)CC1	8.30
CCOc1cc2nnc(C(N)=O)c(Nc3cccc(Cl)c3F)c2cc1N1CCN(C)CC1	> 7.82
COc1cc2nnc(C(N)=O)c(Nc3cc(C)ccc3F)c2cc1N1CCN(C(C)C)CC1	> 8.30

Task: Recorded pIC50 for `CCOc1cc2nnc(C(N)=O)c(Nc3ccc(C)cc3F)c2cc1N1CCN(C(C)C)CC1` , please?
Output: > 8.52

Task: Entry under review: `CCOc1cc2nnc(C(N)=O)c(Nc3cc(C)ccc3F)c2cc1N1CCN(C)CC1` . Reported pIC50?
Output: > 8.52

Task: May I ask what pIC50 has been recorded for `COc1cc2nnc(C(N)=O)c(Nc3cccc(Cl)c3Cl)c2cc1OC` ?
Output: > 8.52

Task: Given `COCCOc1cc2nnc(C(N)=O)c(Nc3ccc(F)cc3F)c2cc1N1CCN(C)CC1` , state its recorded pIC50.
Output: > 8.52

Task: Can you look up the measured pIC50 of `CCOc1cc2nnc(C(N)=O)c(Nc3ccc(C)cc3F)c2cc1N1C[C@@H](C)N[C@@H](C)C1` for me?
Output: > 8.52

Task: # get_value(readout='pIC50', item= `CCOc1cc2nnc(C(N)=O)c(Nc3cccc(Cl)c3Cl)c2cc1N1CCN(C)CC1` )
Output: 8.52

Task: Report pIC50 for `COc1cc2nnc(C(N)=O)c(Nc3ccc(C)cc3F)c2cc1-c1ccncc1` please.
Output: 7.29

Task: Return reported pIC50; argument: `COCCOc1cc2nnc(C(N)=O)c(Nc3ccc(C)cc3F)c2cc1N1CCN(C)CC1`
Output: > 8.52

Task: Bench note: what pIC50 did `CCOc1cc2nnc(C(N)=O)c(Nc3ccc(C)cc3F)c2cc1N1CCN(C)CC1` show?
Output: > 8.52

Task: What does the data say about its pIC50? Entry: `COCCOc1cc2nnc(C(N)=O)c(Nc3cc(C)ccc3F)c2cc1N1CCN(C)CC1`
Output: > 8.52

Task: For the molecule `COc1cc2nnc(C(N)=O)c(Nc3ccc(C)cc3F)c2cc1N1CCN(C(C)(C)C)CC1` , what pIC50 is on record?
Output: 8.05

Task: Fill in: pIC50 of `COc1cc2nnc(C(N)=O)c(Nc3cc(C)ccc3F)c2cc1N1CCN(C)CC1` is ___
Output: > 8.52

Task: Suppose we examine the molecule `COc1cc2nnc(C(N)=O)c(Nc3cc(C)ccc3F)c2cc1OC` ; what pIC50 value has been reported?
Output: 8.30

Task: // returns reported pIC50 for input `COCCOc1cc2nnc(C(N)=O)c(Nc3cccc(Cl)c3F)c2cc1N1CCN(C)CC1`
Output: > 8.52

====

# SYSTEM_NAME: CSF-1R (His-tagged kinase domain, amino acids 568-912) (Homo sapiens, UniProt P07333)
# Construct: The His-tagged kinase domain of CSF-1R (i.e., amino acids 568-912, GeneBank ID NM_005211); His; made in house; host or cells: baculovirus infected SF+Express insect cells
# Sequence (P07333 568-912): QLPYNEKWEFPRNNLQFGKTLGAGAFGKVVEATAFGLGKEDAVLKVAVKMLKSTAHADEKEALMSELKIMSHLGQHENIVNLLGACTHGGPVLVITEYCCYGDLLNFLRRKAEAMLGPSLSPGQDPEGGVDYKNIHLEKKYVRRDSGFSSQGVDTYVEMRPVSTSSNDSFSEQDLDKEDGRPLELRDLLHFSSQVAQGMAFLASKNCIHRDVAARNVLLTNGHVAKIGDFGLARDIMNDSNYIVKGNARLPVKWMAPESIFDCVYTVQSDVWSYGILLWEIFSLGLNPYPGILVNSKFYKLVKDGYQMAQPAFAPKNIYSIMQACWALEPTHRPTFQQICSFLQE
# EXPERIMENT: Assay 2: CSF1R in-vitro AlphaScreen Assay
# Assay type: biochemical
# STATED_CONDITIONS: phosphorylation of pEY substrate; 0.46 nM CSF-1R, 12 mM ATP in mix
PARAMETER_MEASURED: IC50 (µM)

Known results for compounds:
COMPOUND	IC50 [µM]
COc1cc2nnc(C(N)=O)c(Nc3ccc(C)cc3F)c2cc1C1CCN(S(C)(=O)=O)CC1	0.033
COc1cc2nnc(C(N)=O)c(Nc3ccc(C)cc3F)c2cc1N1CCN2CCCC2C1 (stereo not shown)	0.012

P. COc1cc2nnc(C(N)=O)c(Nc3ccc(C)cc3F)c2cc1N1CCN(CC(F)(F)F)CC1
Q. COc1cc2nnc(C(N)=O)c(Nc3ccc(C)cc3F)c2cc1N1CCn2cnnc2C1
Task: Higher IC50: P or Q ? Your choice should be expressed through its label.
Output: Q

====

# SYSTEM_NAME: CSF-1R (His-tagged kinase domain, amino acids 568-912) (Homo sapiens, UniProt P07333)
# Construct: The His-tagged kinase domain of CSF-1R (i.e., amino acids 568-912, GeneBank ID NM_005211); His; made in house; host or cells: baculovirus infected SF+Express insect cells
# EXPERIMENT: Assay 1: CSF-1R in vitro AlphaScreen Assay
# Type: biochemical
# STATED_CONDITIONS: phosphorylation of pEY substrate; 0.57 nM CSF-1R, 90 μM ATP
pIC50: −log10 of the molar value.
PARAMETER_MEASURED: pIC50

Here are 5 compounds together with their reported answers.
COMPOUND	pIC50
CCOc1cc2nnc(C(N)=O)c(Nc3ccc(C)cc3F)c2cc1N1CCCN(C)CC1 [Example 27]	> 8.52
COc1cc2nnc(C(N)=O)c(Nc3cccc(Cl)c3F)c2cc1N1CCN(C)CC1 [Example 14]	> 8.52
COc1cc2nnc(C(N)=O)c(Nc3ccc(C)cc3F)c2cc1OC [Example 2]	8.10
COc1cc2nnc(C(N)=O)c(Nc3ccc(F)cc3F)c2cc1N1CCN(C)CC1 [Example 20]	> 8.52
COCCOc1cc2nnc(C(N)=O)c(Nc3ccc(F)cc3F)c2cc1N1CCN(C(C)C)CC1 [Example 24]	> 8.52

Let's switch to this compound now.
Task: Give its pIC50 value. Item: CCOc1cc2nnc(C(N)=O)c(Nc3ccc(F)cc3F)c2cc1N1CCN(C(C)C)CC1 [Example 11]
Output: 8.10
